Test system: SK-MEL-2 melanoma
Assay: NCI tumour cell line growth inhibition, 48 h
Please provide measured TGI for the entries that follow.

For orientation, consider the following solved cases.
# COMPOUND, TGI
records = [
    ("O=S(=O)(/N=S(/Nc1ccccc1)C(F)(F)Cl)c1ccccc1 (stereo unspecified)", "> 100 µM"),
    ("N#CC1=C(N)NC(N2CCOCC2)=NC12Nc1ccccc1O2 (stereo unspecified)", "> 100 µM"),
    ("O=c1cc(N2CCOCC2)n2c(ccc3ccccc32)n1", "> 100 µM"),
    ("COc1cccc2c1OC1c3ccccc3OCC1(O)C2 (stereo unspecified)", "> 100 µM"),
    ("O=c1[nH]nc(-c2ccccc2)c2[nH]c3c(c12)Cc1ccccc1-3", "> 100 µM"),
    ("Cc1cc2c(=O)c3ccc(Cl)cc3[nH]c2c(C(N)=O)c1C", "> 100 µM"),
]

Provide TGI values for the following items, in order.
1. COC(=O)C(=O)C(C(=O)C(=O)Nc1ccccc1[N+](=O)[O-])c1nc2ccc([N+](=O)[O-])cc2[nH]c1=O (stereo unspecified)
2. COC(=O)CC1(O)C=CC(=O)C=C1
3. Cc1cc(=O)[nH]c(N/N=C/c2ccccc2O)n1
4. OCCCCC#Cc1ccccc1C#Cc1cccnc1
5. COc1cc2c(cc1OC)C(C(CBr)CBr)N(C1CCCC1)CC2 (stereo unspecified)
6. Cc1cc2c(c(C(=O)NCC(=O)O)c1)Oc1c(cc(C)cc1C(=O)NCC(=O)O)S2

// result
["> 100 µM", "14.6 µM", "> 100 µM", "> 100 µM", "> 100 µM", "> 100 µM"]

Provide TGI values for the following items, in order.
1. COc1cc(F)c(F)cc1C(=O)c1cnc(NC2CCN(S(C)(=O)=O)CC2)nc1N
2. O=C1CC(C2(O)C(=O)Nc3ccc([N+](=O)[O-])cc32)c2ccccc21 (stereo unspecified)

// result
["12.6 µM", "36.5 µM"]

Provide TGI values for the following items, in order.
1. O=[N+]([O-])c1ccc(N2N=C(c3c(O)ccc4ccccc34)CC2c2ccc(Cl)cc2)c([N+](=O)[O-])c1 (stereo unspecified)
2. CCC[CH2][Sn]([CH2]CCC)([CH2]CCC)/[C](=C/[Si](C)(C)c1ccccc1)c1ccc2c(c1)OCO2

// result
["44.2 µM", "63.5 µM"]
